- EXPERIMENTAL SYSTEM: human KDR (VEGFR2) on cells (human, UniProt P35968 20-1356); note: test concentration or dose not given here
- Sequence (P35968 20-1356): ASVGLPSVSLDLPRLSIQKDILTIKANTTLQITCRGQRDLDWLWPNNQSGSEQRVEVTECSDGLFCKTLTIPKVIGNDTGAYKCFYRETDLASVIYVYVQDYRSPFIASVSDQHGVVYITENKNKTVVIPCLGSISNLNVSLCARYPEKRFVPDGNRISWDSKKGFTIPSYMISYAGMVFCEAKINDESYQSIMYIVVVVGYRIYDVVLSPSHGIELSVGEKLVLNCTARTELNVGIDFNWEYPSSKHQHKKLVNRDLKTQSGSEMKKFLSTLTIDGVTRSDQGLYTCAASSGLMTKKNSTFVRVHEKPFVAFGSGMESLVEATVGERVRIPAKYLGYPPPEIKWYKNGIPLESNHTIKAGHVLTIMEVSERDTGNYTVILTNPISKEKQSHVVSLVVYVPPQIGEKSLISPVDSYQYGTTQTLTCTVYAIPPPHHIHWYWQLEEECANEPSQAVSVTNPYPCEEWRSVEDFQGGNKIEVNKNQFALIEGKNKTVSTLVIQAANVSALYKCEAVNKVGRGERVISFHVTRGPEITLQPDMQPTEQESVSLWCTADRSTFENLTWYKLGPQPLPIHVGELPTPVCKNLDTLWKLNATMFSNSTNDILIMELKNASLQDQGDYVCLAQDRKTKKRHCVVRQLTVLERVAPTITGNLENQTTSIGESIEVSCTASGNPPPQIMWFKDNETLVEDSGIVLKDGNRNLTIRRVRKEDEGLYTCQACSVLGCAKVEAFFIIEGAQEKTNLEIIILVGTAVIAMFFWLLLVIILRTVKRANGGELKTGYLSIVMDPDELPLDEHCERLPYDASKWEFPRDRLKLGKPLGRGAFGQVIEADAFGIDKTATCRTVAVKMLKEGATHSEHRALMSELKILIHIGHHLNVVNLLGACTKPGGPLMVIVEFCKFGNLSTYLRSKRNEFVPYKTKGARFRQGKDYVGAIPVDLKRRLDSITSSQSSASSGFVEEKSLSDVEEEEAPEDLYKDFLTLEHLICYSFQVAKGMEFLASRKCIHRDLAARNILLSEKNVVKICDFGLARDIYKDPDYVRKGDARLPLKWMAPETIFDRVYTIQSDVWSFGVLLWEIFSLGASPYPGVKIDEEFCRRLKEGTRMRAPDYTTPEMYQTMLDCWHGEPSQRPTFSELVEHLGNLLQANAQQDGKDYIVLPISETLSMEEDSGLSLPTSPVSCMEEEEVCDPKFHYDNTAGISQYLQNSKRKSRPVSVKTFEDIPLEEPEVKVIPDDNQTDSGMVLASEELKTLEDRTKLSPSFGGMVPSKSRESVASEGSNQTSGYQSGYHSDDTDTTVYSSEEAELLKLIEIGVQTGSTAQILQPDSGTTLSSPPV
- PROTOCOL: cell-based or functional assay
# % Inhibition of VEGF165-mediated pTyr Activity, n = 1 listing for each entry below
Respond with the bare value in %.

{"columns": ["BINDER", "OBSERVED"],
 "data": [
  ["anti-KDR monoclonal antibody 30F6 (antibody, V domains shown, Fully human mAb from XenoMouse (IgG2 or IgG4 strain); hybridoma supernatant) VH: QVQLVESGGGVVQPGRSLRLSCAASGFTFSTYGMHWVRQAPGKGLEWVAVIWYDGSNKYYADSVKGRFTISRDNSKNTLYLQMNSLRAEDTAVYYCACSYWNDDYYYGMDVWGQGTTVTVSS VL: DIQMTQSPSSLSASVGDRVIITCRASQNISSYLIWYQQKPGKAPNLLIHTTSSLQRGVPSRFSGSGSGTDFTLTISSLQPEDFATYYCQQSYSAPLTFGGGTKVEIK", 98],
  ["anti-KDR monoclonal antibody 24B3 (antibody, V domains shown, Fully human mAb from XenoMouse (IgG2 or IgG4 strain); hybridoma supernatant) VH: EVQLVESGGGLVKPGGSLRLSCAASGFTFSTYSMNWVRQAPGKGLEWVSFISGRSSYIYYADSVKGRFTISRDNAKNSLYLQMNSLRAEDTAVYYCSKDDWFEELWGQGTLVTVSS VL: DIQMTQSPSSLSASVGDRVTITCRASQGIRSDLGWYQQKPGKAPKRLIYATSSLQSGVPSRFSGSGSGTEFTLTISSLQPEDFATYYCLQHNRYPWTFGQGTKVEIK", 69]
]}

# next binder below
Exercise: # query: % Inhibition of VEGF165-mediated pTyr Activity, n = 1 of entry anti-KDR monoclonal antibody 33C3 (antibody, V domains shown, Fully human mAb from XenoMouse (IgG2 or IgG4 strain); hybridoma supernatant) VH: QVQLVESGGGLVKPGESLRLSCAASGFTFSDYYMSWIRQAPGKGLEWVSYISHGGSTIYYADSVKGRFTISRDNAKNSLYLQMNSLRVEDTAVYFCARDDFWSGYYFNWFDPWGQGALVTVSS VL: DIQMTQYPLSLSASVGDRVTITCRASQSISSFLNWYHQKPGKAPKLLIYGTSSLQSGVPSRFSGSGSGTDFTLTISSLQPEDFATYYCQQTYSIPLTFGGGTNVEIK
Solution: 87
